Assay: Oral bioavailability in dog at 3 mg/kg
Format: ADME, organism-based, Canis lupus familiaris
Conditions: in vivo
Parameter measured: bioavailability
Kindly format the answer as number then unit.

## Task bioavailability lookup needed for `Cc1cn2c(-c3cn[nH]c3)cnc2c(Nc2cc(Cc3ccccn3)ns2)n1` , thanks.
## Result 15%

## Task Same thing, different compound: Cc1cn2c(-c3cn[nH]c3)cnc2c(Nc2cc(C(NC(C)(C)C)c3ccccn3)ns2)n1 (single isomer, unassigned; (+))
## Result 86%

###

Assay: Clearance in dog at 1 mg/kg, iv
Assay type: ADME, organism-based, Canis lupus familiaris
Conditions: in vivo
Parameter measured: clearance (mL/min/kg)
Respond numerically; units are mL/min/kg and should not be typed.

## Task clearance lookup needed for Cc1cn2c(-c3cn[nH]c3)cnc2c(Nc2cc(C(NC(C)(C)C)c3ccccn3)ns2)n1 (single isomer, unassigned; (+)) , thanks.
## Result 9.4

## Task Same thing, different compound: `Cc1cn2c(-c3cn[nH]c3)cnc2c(Nc2cc(Cc3ccccn3)ns2)n1`
## Result 5
